# target: Voltage-gated inwardly rectifying potassium channel KCNH2 (Homo sapiens) (UniProt Q12809)
# Sequence (Q12809 whole entry, looked up): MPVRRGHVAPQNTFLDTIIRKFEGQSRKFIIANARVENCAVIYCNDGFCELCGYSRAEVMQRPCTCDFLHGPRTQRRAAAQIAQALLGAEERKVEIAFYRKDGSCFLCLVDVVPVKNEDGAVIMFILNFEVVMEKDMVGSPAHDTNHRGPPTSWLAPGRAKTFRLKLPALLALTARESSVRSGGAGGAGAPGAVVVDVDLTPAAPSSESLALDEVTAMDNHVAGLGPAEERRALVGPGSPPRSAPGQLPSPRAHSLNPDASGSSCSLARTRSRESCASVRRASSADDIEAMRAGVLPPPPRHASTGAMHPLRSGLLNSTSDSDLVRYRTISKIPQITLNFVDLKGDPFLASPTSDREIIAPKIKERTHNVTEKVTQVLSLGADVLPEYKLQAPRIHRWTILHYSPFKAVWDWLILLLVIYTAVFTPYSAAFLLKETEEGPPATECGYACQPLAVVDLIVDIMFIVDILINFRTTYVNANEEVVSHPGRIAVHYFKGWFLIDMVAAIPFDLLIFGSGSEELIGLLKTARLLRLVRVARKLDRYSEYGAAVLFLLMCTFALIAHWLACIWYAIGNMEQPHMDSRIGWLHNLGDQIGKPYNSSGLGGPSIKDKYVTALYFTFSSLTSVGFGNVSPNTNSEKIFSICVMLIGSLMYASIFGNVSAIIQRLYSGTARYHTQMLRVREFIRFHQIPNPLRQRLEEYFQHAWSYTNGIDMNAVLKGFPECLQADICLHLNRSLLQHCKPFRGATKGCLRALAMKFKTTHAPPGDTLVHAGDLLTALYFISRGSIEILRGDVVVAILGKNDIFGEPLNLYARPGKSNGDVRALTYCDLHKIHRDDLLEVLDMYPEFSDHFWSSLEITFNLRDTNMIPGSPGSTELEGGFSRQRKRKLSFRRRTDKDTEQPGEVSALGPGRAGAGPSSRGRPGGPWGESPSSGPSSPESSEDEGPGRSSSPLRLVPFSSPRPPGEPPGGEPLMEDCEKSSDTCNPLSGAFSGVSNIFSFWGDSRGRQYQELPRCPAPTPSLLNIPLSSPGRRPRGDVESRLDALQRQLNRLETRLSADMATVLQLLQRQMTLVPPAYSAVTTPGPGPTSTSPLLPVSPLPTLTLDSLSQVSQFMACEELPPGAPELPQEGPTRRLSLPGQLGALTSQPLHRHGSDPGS
# protocol-summary: qHTS Assay for Small Molecule Inhibitors of the Human hERG Channel Activity (AID 588834);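 further: lower thallium flux fluorescence means stronger hERG block; nearly all actives have a fitted effect of over 50% in size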
# conditions: U2OS BacMam hERG, FluxOR thallium flux fluorescence; series mostly up to 46.1 µM
Records with an inconclusive call do not appear. Calls of active or inactive are those of the source. The call rests on the fitted dose curve; in most records, active means well fitted inhibition curve with a large enough effect; inconclusive means small, poorly fitted or top-dose-only effect; inactive means flat fitted curve, though single readings scatter.
Answer with one of the outcomes given here: Y = active, N = inactive

// known answers, use as guide
NC(=O)c1cc[n+](CC2=C(C(=O)O)N3C(=O)[C@@H](NC(=O)C(c4ccccc4)S(=O)(=O)[O-])[C@H]3SC2)cc1 (stereo partly drawn); N
CNC(=O)[C@H](Cc1c[nH]c2ccccc12)NC(=O)[C@@H](CC(=O)NO)CC(C)C; N
Cc1ccc(S(=O)(=O)NC(=O)N[C@@H](C)Cc2ccccc2)cc1; N

[Q] Field: outcome | Entry: N[C@H](CC(=O)O)C(=O)O
[A] N

[Q] Field: outcome | Entry: CC(C)(C)c1ccc(CN2CCN(C(c3ccccc3)c3ccc(Cl)cc3)CC2)cc1 (stereo not drawn)
[A] Y

[Q] Field: outcome | Entry: COc1ccc2c(=O)c(C)c(-c3ccccc3)oc2c1CN(C)C
[A] N

[Q] Field: outcome | Entry: CC(C)C[C@H](NC(=O)[C@@H](Cc1c[nH]c2ccccc12)NC(=O)[C@H](Cc1ccc(O)cc1)NC(=O)[C@H](CO)NC(=O)[C@H](Cc1c[nH]c2ccccc12)NC(=O)[C@H](Cc1cnc[nH]1)NC(=O)[C@@H]1CCC(=O)N1)C(=O)N[C@@H](CCCN=C(N)N)C(=O)N1CCC[C@@H]1C(=O)NCC(N)=O
[A] N

[Q] Field: outcome | Entry: C=C1[C@H](CO)[C@@H](O)C[C@@H]1n1cnc2c(=O)[nH]c(N)nc21
[A] N
